# test system: T1, mouse DLL3 his tag protein (KACTUS, Cat. No. DLL-MM103) (mouse, UniProt O88516 33-490, limits assumed)
# T1 construct: Bought protein; also called mDLL3-his; mouse DLL3 protein; not shown: his tag
# T1 sequence (looked up): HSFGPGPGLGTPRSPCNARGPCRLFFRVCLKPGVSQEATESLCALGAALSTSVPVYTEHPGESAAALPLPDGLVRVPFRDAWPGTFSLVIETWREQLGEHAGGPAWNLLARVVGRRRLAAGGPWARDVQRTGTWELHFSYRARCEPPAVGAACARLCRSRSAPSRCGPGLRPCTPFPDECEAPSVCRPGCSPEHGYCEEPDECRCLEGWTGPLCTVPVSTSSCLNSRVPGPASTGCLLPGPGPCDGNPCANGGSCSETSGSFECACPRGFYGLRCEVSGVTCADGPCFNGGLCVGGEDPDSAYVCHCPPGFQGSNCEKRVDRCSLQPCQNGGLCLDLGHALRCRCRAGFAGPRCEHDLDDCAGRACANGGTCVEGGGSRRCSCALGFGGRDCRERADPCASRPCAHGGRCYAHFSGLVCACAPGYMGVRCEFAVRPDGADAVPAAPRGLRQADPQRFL
# test details: ELISA, mDLL3-his coated at 1 ug/mL

binder	binding result
362H3D3-hIgG1 chimeric antibody (antibody, V domains shown) VH: EVQLQQSGPELLKPGASVKISCKASGYTFTDYTMHWVKQSHGRSLEWIGGIHPNYGGTSYNEKFKDKATLTVDKSSSTAYMEFRSLTSEDSAVYYCARWGYYGGSYWYFDVWGTGTTVTVSS VL: DIQMTQSPASLSVSVGETVTITCRASENIYSNLAWYQQKQGKSPQLLVYAATNLADGVPSRFSGSGSGTQYSLKINSLQSEDFGSYYCQHFWGTPYTFGGGTKLEIKR	binds
